Test system: Escherichia coli
Format: cell-based
Bridge positions count the residues as written; N and C are the ends. Square brackets hold non-standard residues; d marks the D form. Peptide text beside a SMILES is read from it. * marks the point of attachment. ξ: configuration not given here. dBip = N[C@H](Cc1ccc(-c2ccccc2)cc1)C(=O)O; X3 = CCCCCCCCN1CCNC[C@H]1C(=O)*; Thr(3ξ) = CC(O)[C@H](N)C(=O)O; X1 = CC(C)CN1CCNC[C@H]1C(=O)*; Dab = NCC[C@H](N)C(=O)O; Dap = NC[C@H](N)C(=O)O
quantity name: MIC E. coli 060 (µg/mL)
Just the number in µg/mL, nothing appended.

Solved cases (2 shown):
compound	MIC E. coli 060 (µg/mL)
CCCCCCCCN1CCNC[C@H]1C(=O)N[C@H](C(=O)N[C@@H](CCN)C(=O)N[C@H]1CCNC(=O)[C@H]([C@@H](C)O)NC(=O)[C@H](CCN)NC(=O)[C@H](CCN)NC(=O)[C@H](CC(C)C)NC(=O)[C@@H](Cc2ccc(-c3ccccc3)cc2)NC(=O)[C@H](CCN)NC1=O)C(C)O (stereo partly drawn) [Example 6] (X3-[Thr(3ξ)][Dab][Dab][Dab][dBip]L[Dab][Dab]T; lactam 3-C)	1
CC(C)C[C@@H]1NC(=O)[C@@H](Cc2ccccc2)NC(=O)[C@H](CCN)NC(=O)[C@@H](NC(=O)[C@H](CN)NC(=O)[C@@H](NC(=O)[C@@H]2CNCCN2CC(C)C)C(C)O)CCNC(=O)[C@H]([C@@H](C)O)NC(=O)[C@H](CCN)NC(=O)[C@H](CCN)NC1=O (stereo partly drawn) [Example C2, reference compound] (X1-[Thr(3ξ)][Dap][Dab][Dab][dF]L[Dab][Dab]T; lactam 3-C)	8

**Q:** What value of measured MIC E. coli 060 is listed for CC(C)CC1CNCC(C(=O)N[C@H](C(=O)N[C@@H](CN)C(=O)N[C@H]2CCNC(=O)[C@H]([C@@H](C)O)NC(=O)[C@H](CCN)NC(=O)[C@H](CCN)NC(=O)[C@H](CC(C)C)NC(=O)[C@@H](Cc3ccc(Br)cc3)NC(=O)[C@H](CCN)NC2=O)C(C)O)C1 (single isomer, unassigned; isomer 2) [Example 12] ?
**A:** 1

###

Test system: Klebsiella pneumoniae
Format: cell-based
Bridge positions count the residues as written; N and C are the ends. Square brackets hold non-standard residues; d marks the D form. Peptide text beside a SMILES is read from it. * marks the point of attachment. ξ: configuration not given here. dPhe(4-Br) = N[C@H](Cc1ccc(Br)cc1)C(=O)O; X9 = Cc1ccc(CO[C@@H](CCN)C(=O)*)cc1; Octanoyl(6-Me) = CCC(C)CCCCC(=O)*; dCha = N[C@H](CC1CCCCC1)C(=O)O; Thr(3ξ) = CC(O)[C@H](N)C(=O)O; Dab = NCC[C@H](N)C(=O)O; Dap = NC[C@H](N)C(=O)O; X18 = CCCCC(CCN)C(=O)*; X2 = CC(C)CC(CN)C(=O)*
quantity name: MIC K. pneumoniae ATCC 4352
Reply with the number and its unit after it.

compound	measured result
CCCCC(CCN)C(=O)N[C@H](C(=O)N[C@@H](CCN)C(=O)N[C@H]1CCNC(=O)[C@H]([C@@H](C)O)NC(=O)[C@H](CCN)NC(=O)[C@H](CCN)NC(=O)[C@H](CC(C)C)NC(=O)[C@@H](Cc2ccccc2)NC(=O)[C@H](CCN)NC1=O)C(C)O (some centres unmarked) [Example C4, reference compound] (X18-[Thr(3ξ)][Dab][Dab][Dab][dF]L[Dab][Dab]T; lactam 3-C)	0.25 µg/mL
CC(C)CC(CN)C(=O)N[C@H](C(=O)N[C@@H](CN)C(=O)N[C@H]1CCNC(=O)[C@H]([C@@H](C)O)NC(=O)[C@H](CCN)NC(=O)[C@H](CCN)NC(=O)[C@H](CC(C)C)NC(=O)[C@@H](Cc2ccc(Br)cc2)NC(=O)[C@H](CCN)NC1=O)C(C)O (single isomer, unassigned; isomer 2) [Example 14]	0.25 µg/mL
Cc1ccc(CO[C@@H](CCN)C(=O)N[C@H](C(=O)N[C@@H](CN)C(=O)N[C@H]2CCNC(=O)[C@H]([C@@H](C)O)NC(=O)[C@H](CCN)NC(=O)[C@H](CCN)NC(=O)[C@H](CC(C)C)NC(=O)[C@@H](CC3CCCCC3)NC(=O)[C@H](CCN)NC2=O)[C@@H](C)O)cc1 [Example 71] (X9-T[Dap][Dab][Dab][dCha]L[Dab][Dab]T; lactam 3-C)	0.25 µg/mL
CC(C)CC(CN)C(=O)N[C@H](C(=O)N[C@@H](CN)C(=O)N[C@H]1CCNC(=O)[C@H]([C@@H](C)O)NC(=O)[C@H](CCN)NC(=O)[C@H](CCN)NC(=O)[C@H](CC(C)C)NC(=O)[C@@H](Cc2ccc(-c3ccccc3)cc2)NC(=O)[C@H](CCN)NC1=O)C(C)O (single isomer, unassigned; isomer 1) [Example 15]	0.5 µg/mL
CC(C)CC1CNCC(C(=O)N[C@H](C(=O)N[C@@H](CN)C(=O)N[C@H]2CCNC(=O)[C@H]([C@@H](C)O)NC(=O)[C@H](CCN)NC(=O)[C@H](CCN)NC(=O)[C@H](CC(C)C)NC(=O)[C@@H](Cc3ccc(-c4ccccc4)cc3)NC(=O)[C@H](CCN)NC2=O)C(C)O)C1 (single isomer, unassigned; isomer 1) [Example 3]	0.5 µg/mL
CC(C)C[C@@H]1NC(=O)[C@@H](CC2CCCCC2)NC(=O)[C@H](CCN)NC(=O)[C@@H](NC(=O)[C@H](CN)NC(=O)[C@@H](NC(=O)CC(N)C2CCCCC2)C(C)O)CCNC(=O)[C@H]([C@@H](C)O)NC(=O)[C@H](CCN)NC(=O)[C@H](CCN)NC1=O (single isomer, unassigned; isomer 1) [Example 32]	0.06 µg/mL

**Q:** Hi! What's the reported MIC K. pneumoniae ATCC 4352 for CCCCCC/C=C/c1ccc(C[C@H]2NC(=O)[C@H](CCN)NC(=O)[C@@H](NC(=O)[C@H](CN)NC(=O)[C@@H](NC(=O)C3CNCC(CC(C)C)C3)C(C)O)CCNC(=O)[C@H]([C@@H](C)O)NC(=O)[C@H](CCN)NC(=O)[C@H](CCN)NC(=O)[C@H](CC(C)C)NC2=O)cc1 (single isomer, unassigned; isomer 2) [Example 18] on Klebsiella pneumoniae?
**A:** 2 µg/mL

**Q:** Hi! What's the reported MIC K. pneumoniae ATCC 4352 for CCC(C)CCCCC(=O)N[C@@H](CCN)C(=O)N[C@H](C(=O)N[C@@H](CCN)C(=O)N[C@H]1CCNC(=O)[C@H]([C@@H](C)O)NC(=O)[C@H](CCN)NC(=O)[C@H](CCN)NC(=O)[C@H](CC(C)C)NC(=O)[C@@H](Cc2ccc(Br)cc2)NC(=O)[C@H](CCN)NC1=O)C(C)O (stereo partly drawn) [Example 2, Polymyxin B[D-(4-bromoPhe)]-6]] ({Octanoyl(6-Me)}-[Dab][Thr(3ξ)][Dab][Dab][Dab][dPhe(4-Br)]L[Dab][Dab]T; lactam 4-C) on Klebsiella pneumoniae?
**A:** 1 µg/mL

**Q:** Hi! What's the reported MIC K. pneumoniae ATCC 4352 for CC(C)CC(CN)C(=O)N[C@H](C(=O)N[C@@H](CCN)C(=O)N[C@H]1CCNC(=O)[C@H]([C@@H](C)O)NC(=O)[C@H](CCN)NC(=O)[C@H](CCN)NC(=O)[C@H](CC(C)C)NC(=O)[C@@H](CC2CCCCC2)NC(=O)[C@H](CCN)NC1=O)C(C)O (some centres unmarked) [Example 21] (X2-[Thr(3ξ)][Dab][Dab][Dab][dCha]L[Dab][Dab]T; lactam 3-C) on Klebsiella pneumoniae?
**A:** 0.25 µg/mL

**Q:** Hi! What's the reported MIC K. pneumoniae ATCC 4352 for CCCCCCCCC1CNCC1C(=O)N[C@H](C(=O)N[C@@H](CCN)C(=O)N[C@H]1CCNC(=O)[C@H]([C@@H](C)O)NC(=O)[C@H](CCN)NC(=O)[C@H](CCN)NC(=O)[C@H](CC(C)C)NC(=O)[C@@H](Cc2ccccc2-c2ccccc2)NC(=O)[C@H](CCN)NC1=O)C(C)O (single isomer, unassigned; isomer 2) [Example 10] on Klebsiella pneumoniae?
**A:** 1 µg/mL

**Q:** Hi! What's the reported MIC K. pneumoniae ATCC 4352 for CCCCCCCCC1CNCC1C(=O)N[C@H](C(=O)N[C@@H](CCN)C(=O)N[C@H]1CCNC(=O)[C@H]([C@@H](C)O)NC(=O)[C@H](CCN)NC(=O)[C@H](CCN)NC(=O)[C@H](CC(C)C)NC(=O)[C@@H](Cc2ccc(-c3ccccc3)cc2)NC(=O)[C@H](CCN)NC1=O)C(C)O (single isomer, unassigned; isomer 2) [Example 8] on Klebsiella pneumoniae?
**A:** 1 µg/mL
